SYSTEM: purified native human BChE (Homo sapiens, UniProt P06276)
Construct: purified native human BChE; tissue gift of Dr Florian Nachon (IRBA, Brétigny-sur-Orge, France)
Sequence (P06276 29-602): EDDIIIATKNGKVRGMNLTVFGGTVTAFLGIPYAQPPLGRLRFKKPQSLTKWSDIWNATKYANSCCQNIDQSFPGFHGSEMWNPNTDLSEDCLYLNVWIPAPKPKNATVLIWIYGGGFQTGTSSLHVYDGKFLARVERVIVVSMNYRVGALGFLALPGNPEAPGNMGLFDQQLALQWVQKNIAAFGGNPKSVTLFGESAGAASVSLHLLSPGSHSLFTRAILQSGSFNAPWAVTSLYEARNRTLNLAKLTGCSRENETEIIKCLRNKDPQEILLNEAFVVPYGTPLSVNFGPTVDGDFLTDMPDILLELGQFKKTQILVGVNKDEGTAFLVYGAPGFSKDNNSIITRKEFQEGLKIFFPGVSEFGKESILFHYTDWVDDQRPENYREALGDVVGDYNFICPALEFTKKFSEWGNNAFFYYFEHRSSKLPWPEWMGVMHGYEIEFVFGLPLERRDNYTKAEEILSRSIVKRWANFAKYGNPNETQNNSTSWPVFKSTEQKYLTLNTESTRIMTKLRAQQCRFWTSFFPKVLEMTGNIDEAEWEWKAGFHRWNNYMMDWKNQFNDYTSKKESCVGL
MEASUREMENT_DESCRIPTION: biochemical
Type: biochemical
PARTICULARS: selectivity index
# class assignment by measured SI = Ki(AChE)/Ki(BChE): bottom end = under 1, midrange = from 1 up to 3, top end = 3 and over

Would you please look over these solved cases?
ITEM_SMILES	CLASS_ASSIGNMENT
CC(C)(C)C1=CC(=O)C=C(Sc2ccccc2)C1=O	top end
CC(C)(C)C1=CC(=O)C=CC1=O	bottom end
CC(C)(C)C1=CC(=O)C=C(SCCc2ccccc2)C1=O	bottom end

Where would `CC(C)(C)C1=CC(=O)C=C(Sc2ccc(O)cc2)C1=O` land among the classes by reported SI = Ki(AChE)/Ki(BChE)?
midrange

Where would `CC(C)(C)C1=CC(=O)C=C(SCCO)C1=O` land among the classes by reported SI = Ki(AChE)/Ki(BChE)?
midrange

Where would `CC(C)(C)C1=CC(=O)C=C(Sc2ccc3ccccc3c2)C1=O` land among the classes by reported SI = Ki(AChE)/Ki(BChE)?
bottom end

Where would `CC(C)(C)C1=CC(=O)C(SCCO)=CC1=O` land among the classes by reported SI = Ki(AChE)/Ki(BChE)?
top end

###

The entries below come with measured inhibition at 50 µM values attached.
SYSTEM: human recombinant β-secretase (BACE1) (Homo sapiens)
Construct: purchased Sigma Aldrich, St. Louis, MO, USA S4195
Sequence (P56817 46-501): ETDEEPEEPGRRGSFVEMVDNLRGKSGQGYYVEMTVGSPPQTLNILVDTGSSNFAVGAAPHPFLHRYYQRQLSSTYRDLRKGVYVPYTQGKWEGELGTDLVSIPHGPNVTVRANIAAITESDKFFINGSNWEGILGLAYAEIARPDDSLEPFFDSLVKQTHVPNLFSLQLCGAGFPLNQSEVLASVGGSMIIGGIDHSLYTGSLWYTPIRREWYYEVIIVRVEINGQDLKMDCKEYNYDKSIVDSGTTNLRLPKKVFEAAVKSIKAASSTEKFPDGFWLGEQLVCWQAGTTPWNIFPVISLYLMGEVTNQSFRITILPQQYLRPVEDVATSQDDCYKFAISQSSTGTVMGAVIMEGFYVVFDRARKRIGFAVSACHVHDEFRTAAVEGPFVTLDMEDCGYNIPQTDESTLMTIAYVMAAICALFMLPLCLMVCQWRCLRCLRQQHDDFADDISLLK
MEASUREMENT_DESCRIPTION: Inhibition of BACE1 (spectrofluorimetric method)
Assay type: biochemical
PARTICULARS: 50 μM compound; three independent measurements ± SD

COMPOUND	inhibition at 50 µM
CC(C)(C)C1=CC(=O)C=C(N[C@@H](Cc2ccccc2)C(=O)O)C1=O [Compound 15]	15%

Can you share its inhibition at 50 µM? I mean this compound: CC(C)(C)C1=CC(=O)C=C(Sc2ccc(O)cc2)C1=O [Compound 7]
16.7%

Can you share its inhibition at 50 µM? I mean this compound: CC(C)(C)C1=CC(=O)C=C(SCCc2ccccc2)C1=O [Compound 9]
27.4%

Can you share its inhibition at 50 µM? I mean this compound: CC(C)(C)C1=CC(=O)C(N2CCC[C@H]2C(=O)O)=CC1=O [Compound 14]
10.1%

###

SYSTEM: recombinant human AChE (Homo sapiens)
Construct: gift of Dr Florian Nachon (IRBA, Brétigny-sur-Orge, France)
Sequence (P22303 32-614): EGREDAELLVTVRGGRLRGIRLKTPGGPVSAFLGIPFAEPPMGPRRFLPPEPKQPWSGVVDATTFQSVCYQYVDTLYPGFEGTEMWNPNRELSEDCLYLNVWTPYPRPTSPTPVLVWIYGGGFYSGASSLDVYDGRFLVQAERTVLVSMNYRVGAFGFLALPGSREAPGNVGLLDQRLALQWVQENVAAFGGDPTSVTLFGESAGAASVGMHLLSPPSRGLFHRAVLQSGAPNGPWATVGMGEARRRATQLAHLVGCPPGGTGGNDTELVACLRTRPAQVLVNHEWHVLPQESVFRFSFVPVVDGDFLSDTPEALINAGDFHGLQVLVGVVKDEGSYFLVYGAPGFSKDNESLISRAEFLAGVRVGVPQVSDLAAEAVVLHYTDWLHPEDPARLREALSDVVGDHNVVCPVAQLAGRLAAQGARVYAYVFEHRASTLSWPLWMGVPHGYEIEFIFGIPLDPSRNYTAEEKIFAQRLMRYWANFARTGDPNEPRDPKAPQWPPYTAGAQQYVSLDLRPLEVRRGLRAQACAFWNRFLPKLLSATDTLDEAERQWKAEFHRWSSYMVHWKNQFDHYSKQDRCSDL
MEASUREMENT_DESCRIPTION: Inhibition of AChE (modified Ellman method, Hunter–Downs evaluation)
Type: biochemical
MEASUREMENT_KIND: Ki (µM)
Respond numerically; units are µM and should not be typed.

Value wanted: Ki (recombinant human AChE (Homo sapiens)) of entry `CC(C)(C)C1=CC(=O)C=CC1=O`
52

###

The entries below come with measured pKi values attached.
SYSTEM: purified native human BChE (Homo sapiens, UniProt P06276)
Construct: purified native human BChE; tissue gift of Dr Florian Nachon (IRBA, Brétigny-sur-Orge, France)
MEASUREMENT_DESCRIPTION: biochemical
Assay type: biochemical
PARTICULARS: read-out: BChE Ki
Just the number, please; pKi means minus log10 of the concentration in mol/L.

ITEM_SMILES	SYSTEM	READOUT_VALUE
CC(C)(C)C1=CC(=O)C=C(SC2CCCC2)C1=O	purified native human BChE (Homo sapiens, UniProt P06276)	4.52
CC(C)(C)C1=CC(=O)C=C(N[C@@H](Cc2ccccc2)C(=O)O)C1=O	purified native human BChE (Homo sapiens, UniProt P06276)	4.47

Pending molecule:
Can you share its pKi? I mean this molecule: `CC(C)(C)C1=CC(=O)C(N2CCC[C@H]2C(=O)O)=CC1=O`
4.44
